- System: EKVX
- Assay protocol: NCI tumour cell line growth inhibition, 48 h
Activity calls are given as the source filed them. No stated cut-off is given here; in the data, active = GI50 up to about 1.1 µM and inactive = higher.
Attribute: GI50

Use these answered entries as a reference point.
Compound	Value measured
CCOC(=O)C1=C(c2ccccc2)N(C(C)=O)Cc2ccccc21	29.6 µM (inactive)
O=C1c2c(Br)sc(Br)c2[C@@H](Cl)[C@H]1Cl	21.7 µM (inactive)
N#Cc1nc(-c2cccs2)oc1N	75 µM (inactive)
C[C@]12CC[C@H]3[C@@H](CC[C@]4(O)C[C@@H](O)CC[C@]34CO)[C@@]1(O)CC[C@@H]2C1=CC(=O)OC1 [STROPHANTHIDOL]	1.39 µM (inactive)

// below: GI50 requested for another compound
Query: GI50; subject: C=CCOC(C)n1c(C)c(Br)c(=O)[nH]c1=O (stereo not given)
> 100 µM (inactive)

Every entry's value here was drawn from ChEMBL document CHEMBL1201862.
